Please respond with reported remaining at 25 min, 2 µM for every item in the list.
method description: Metabolic stability in human liver microsomes
Format: in vitro ADME
measurement setup: both sexes, human, liver microsomes, pH 7.4, human liver microsomes, 2 μM, 37 °C, with NADPH; 25 min; read-out: % Remaining, Mean of 2
Give bare numbers, in %.

Check out these entries, answers already filled in.
compound | readout units | remaining at 25 min, 2 µM
O=C(O)C1C2CC1(C(=O)Nc1ccc(S(=O)(=O)Nc3nccs3)cc1)CO2 (stereo not drawn) [Compound 33] | % | 109
O=C(O)[C@@H]1[C@@H]2CC[C@@]1(C(=O)Nc1ccc(S(=O)(=O)Nc3nccs3)cc1)C2 (relative stereo) [Compound 32] | % | 99

Can you look up the measured remaining at 25 min, 2 µM of O=C(N[C@@H]1[C@@H]2CC[C@@]1(c1ccc(Cl)cc1)C2)c1cccnc1Cl (relative stereo) [Compound 30] for me? 90

---

method description: Metabolic stability in human liver microsomes
Assay type: in vitro ADME
measurement setup: both sexes, pH 7.4; human liver microsomes, no NADPH cofactor; 40 min; ** instability partially or completely not determined by CYP450 activity; read-out: % Remaining without cofactor, Mean of 2
Each record is given t if its reported remaining at 40 min, 2 µM is strictly below 90%. Records at or above 90% are given f.

Example cases with answers are listed next.
compound | category
O=C(NC1CCN(CCCCC2(C(=O)NCC(F)(F)F)c3ccccc3-c3ccccc32)CC1)[C@@H]1[C@H]2C[C@]1(c1ccc(C(F)(F)F)cc1)CO2 (relative stereo) | t
O=C(N[C@@H]1[C@@H]2CC[C@@]1(c1ccc(Cl)cc1)C2)c1cccnc1Cl (relative stereo) | t

Strictly below 90%: is that where remaining at 40 min, 2 µM of Cn1cc(C(=O)N[C@@H]2[C@@H]3CC[C@@]2(c2cc(F)c(F)c(F)c2)C3)c(C(F)F)n1 (relative stereo) sits? f

---

I'd be grateful if you could share measured logD at 1 h for these entries.
method description: physchem
Type: physicochemical
measurement setup: pH 7.4, LogD, pH 7.4, incubation 3
Give bare numbers.

molecule | logD at 1 h
Cn1cc(C(=O)N[C@@H]2[C@H]3C[C@]2(c2cc(F)c(F)c(F)c2)CO3)c(C(F)F)n1 (relative stereo) [Compound 29] | 2.76
Cn1cc(C(=O)Nc2ccccc2-c2cc(F)c(F)c(F)c2)c(C(F)F)n1 [Fluxapyroxad, reference compound] | 3.51
O=C(Nc1ccccc1-c1ccc(Cl)cc1)c1cccnc1Cl [Boscalid, reference compound] | 3.61

Kindly review the next molecule as well.
// query logD at 1 h value for entry O=C(N[C@@H]1[C@H]2C[C@]1(c1ccc(Cl)cc1)CO2)c1cccnc1Cl (relative stereo) [Compound 31] 3.5

---

method description: Metabolic stability in human liver microsomes
Assay type: in vitro ADME
measurement setup: both sexes, human, liver microsomes, pH 7.4, human liver microsomes; * approximate due to high stability; read-out: t1/2
measured quantity: half-life at 2 µM

compound | measured quantity | observed value
O=C(O)C1C2CC1(C(=O)Nc1ccc(S(=O)(=O)Nc3nccs3)cc1)CO2 (stereo not drawn) | half-life at 2 µM | ~19.8 h
O=C(O)c1ccccc1C(=O)Nc1ccc(S(=O)(=O)Nc2nccs2)cc1 [Phthalylsulfathiazole, reference compound] | half-life at 2 µM | ~16 h

Here is another compound to look at.
May I ask what half-life at 2 µM has been recorded for O=C(N[C@@H]1[C@H]2C[C@]1(c1ccc(Cl)cc1)CO2)c1cccnc1Cl (relative stereo) ? ~8.09 h

---

method description: Metabolic stability in human liver microsomes
Type: in vitro ADME
measurement setup: both sexes, human, liver microsomes, pH 7.4, human liver microsomes, 0.42 mg protein per ml; Table S3; * approximate due to high stability; read-out: Clint
measured quantity: microsomal CLint at 2 µM

molecule | microsomal CLint at 2 µM
O=C(N[C@@H]1[C@H]2C[C@]1(c1ccc(Cl)cc1)CO2)c1cccnc1Cl (relative stereo) [Compound 31] | ~3 µL/min/mg

Below is a list of molecules. For each, state its recorded microsomal CLint at 2 µM.
1. O=C(O)c1ccccc1C(=O)Nc1ccc(S(=O)(=O)Nc2nccs2)cc1 [Phthalylsulfathiazole, reference compound]
2. O=C(O)C1C2CC1(C(=O)Nc1ccc(S(=O)(=O)Nc3nccs3)cc1)CO2 (stereo not drawn) [Compound 33]

~2 µL/min/mg
~1 µL/min/mg

---

method description: physchem
Assay type: physicochemical
measurement setup: pH 7.4, LogD, pH 7.4, incubation 3
Would you mind telling me the reported logD at 1 h of each entry?

Here are 4 compounds. What values of logD at 1 h were reported for them?
1. O=C(NC1CCN(CCCCC2(C(=O)NCC(F)(F)F)c3ccccc3-c3ccccc32)CC1)[C@@H]1[C@H]2C[C@]1(c1ccc(C(F)(F)F)cc1)CO2 (relative stereo) [Compound 35]
2. O=C(NC1CCN(CCCCC2(C(=O)NCC(F)(F)F)c3ccccc3-c3ccccc32)CC1)c1ccccc1-c1ccc(C(F)(F)F)cc1 [Lomitapide, reference compound]
3. O=C(NC1CCN(CCCCC2(C(=O)NCC(F)(F)F)c3ccccc3-c3ccccc32)CC1)[C@@H]1[C@@H]2CC[C@@]1(c1ccc(C(F)(F)F)cc1)C2 (relative stereo) [Compound 34]
4. O=C(O)[C@@H]1[C@@H]2CC[C@@]1(C(=O)Nc1ccc(S(=O)(=O)Nc3nccs3)cc1)C2 (relative stereo) [Compound 32]

> 4.5
> 4.5
> 4.5
< 1
